The following compounds are shown together with reported Ki values.
molecular target: GABA A receptor α5β3γ2 (hα5) (Homo sapiens, UniProt P18507+P31644); construct: expressed in transfected cells; host or cells: HEK293, transiently transfected; membranes; test: [3H]flumazenil competition binding, human GABA A α5β3γ2; settings: HEK293 cells transiently transfected, 0.5 nM [3H]flumazenil, mean of two determinations; read-out: Ki[nM] hα5
Express it in nM; write the number only.

Please list Ki recorded for the compound `Clc1ncn2c1Cn1ncnc1-c1cc(-c3cccnc3)ccc1-2` 6.7

Please list Ki recorded for the compound `Brc1ncn2c1Cn1ncnc1-c1ccccc1-2` 0.2

Please list Ki recorded for the compound `O=C(Nc1ccc2c(c1)-c1ncnn1Cc1c(Cl)ncn1-2)C1CC1` 15.8

Please list Ki recorded for the compound `COc1ccc2c(c1)-c1ncnn1Cc1c(Cl)ncn1-2` 0.8

Please list Ki recorded for the compound `C=C=Cc1ccc2c(c1)-c1ncnn1Cc1c(Cl)ncn1-2` 3.2

Please list Ki recorded for the compound `Fc1ccc2c(c1)-c1ncnn1Cc1c(Br)ncn1-2` 0.5

Please list Ki recorded for the compound `FC(F)COc1ccc2c(c1)-c1ncnn1Cc1c(Cl)ncn1-2` 2

Please list Ki recorded for the compound `Fc1ccc2c(c1)-c1ncnn1Cc1c(Cl)ncn1-2` 0.3

Please list Ki recorded for the compound `Clc1ncn2c1Cn1ncnc1-c1cc(NC3CC3)ccc1-2` 2.2

Please list Ki recorded for the compound `FC(F)c1ccc2c(c1)-c1ncnn1Cc1c(Cl)ncn1-2` 1.1

Then there is this compound:
Please list Ki recorded for the compound `COC(=O)c1ccc2c(c1)-c1ncnn1Cc1c(Cl)ncn1-2` 1

---

molecular target: GABA A receptor α3β3γ2 (hα3) (Homo sapiens, UniProt P18507+P34903); construct: expressed in transfected cells; host or cells: HEK293, transiently transfected; membranes; experiment: [3H]flumazenil competition binding, human GABA A α3β3γ2; conditions: HEK293 cells transiently transfected, 1 nM [3H]flumazenil, mean of two determinations; read-out: Ki[nM] hα3
The following molecules are shown together with reported Ki values.
Express it in nM; write the number only.

Past entries and their recorded results:
Please list Ki recorded for the molecule `CCCc1ccc2c(c1)-c1ncnn1Cc1c(Cl)ncn1-2` 187

Please list Ki recorded for the molecule `C=Cc1ccc2c(c1)-c1ncnn1Cc1c(Cl)ncn1-2` 16.8

Please list Ki recorded for the molecule `Clc1ncn2c1Cn1ncnc1-c1cc(Br)ccc1-2` 8.8

Then there is this molecule:
Please list Ki recorded for the molecule `CCCCc1ccc2c(c1)-c1ncnn1Cc1c(Cl)ncn1-2` 115

---

The following compounds are shown together with reported Ki values.
biological target: GABA A receptor α1β3γ2 (hα1) (Homo sapiens, UniProt P14867+P18507); construct: expressed in transfected cells; host or cells: HEK293, transiently transfected; membranes; assay: [3H]flumazenil competition binding, human GABA A α1β3γ2; details: HEK293 cells transiently transfected, 1 nM [3H]flumazenil, mean of two determinations; read-out: Ki[nM] hα1
Express it in nM; write the number only.

Provide measured Ki on GABA A receptor α1β3γ2 (hα1) (Homo sapiens, UniProt P14867+P18507) for Clc1ncn2c1Cn1ncnc1-c1cc(-c3cccnc3)ccc1-2 [Example 57] please. 9.4

Further cases:
Provide measured Ki on GABA A receptor α1β3γ2 (hα1) (Homo sapiens, UniProt P14867+P18507) for COC(=O)c1ccc2c(c1)-c1ncnn1Cc1c(Cl)ncn1-2 [Example 69] please. 7.5

---

target: GABA A receptor α1β3γ2 (hα1) (Homo sapiens, UniProt P14867+P18507); construct: expressed in transfected cells; host or cells: HEK293, transiently transfected; membranes; test: [3H]flumazenil competition binding, human GABA A α1β3γ2
measurement-name: pKi
Answer as the number alone; pKi is minus log10 of concentration in mol/L.

Please list pKi recorded for the molecule `CCCCc1ccc2c(c1)-c1ncnn1Cc1c(Cl)ncn1-2` 7.41

---

target: GABA A receptor α2β3γ2 (hα2) (Homo sapiens, UniProt P18507+P47869); construct: expressed in transfected cells; host or cells: HEK293, transiently transfected; membranes; assay: [3H]flumazenil competition binding, human GABA A α2β3γ2; settings: HEK293 cells transiently transfected, 1 nM [3H]flumazenil, mean of two determinations; read-out: Ki[nM] hα2
measurement-name: Ki (nM)
Express it in nM; write the number only.

Past entries and their recorded results:
Please list Ki recorded for the compound CCCc1ccc2c(c1)-c1ncnn1Cc1c(Cl)ncn1-2 [Example 64] 136

Please list Ki recorded for the compound CCCCc1ccc2c(c1)-c1ncnn1Cc1c(Cl)ncn1-2 [Example 65] 106

Please list Ki recorded for the compound C=Cc1ccc2c(c1)-c1ncnn1Cc1c(Cl)ncn1-2 [Example 66] 17.5

Then there is this compound:
Please list Ki recorded for the compound Clc1ncn2c1Cn1ncnc1-c1cc(Br)ccc1-2 [Example 21] 24.1

---

target: GABA A receptor α3β3γ2 (hα3) (Homo sapiens, UniProt P18507+P34903); construct: expressed in transfected cells; host or cells: HEK293, transiently transfected; membranes; experiment: [3H]flumazenil competition binding, human GABA A α3β3γ2
The following compounds are shown together with reported Ki values.
Express it in nM; write the number only.

Please list Ki recorded for the compound `Clc1ncn2c1Cn1ncnc1-c1cc(C3CC3)ccc1-2` 20.4

Please list Ki recorded for the compound `COC(=O)c1ccc2c(c1)-c1ncnn1Cc1c(Cl)ncn1-2` 7.5

Please list Ki recorded for the compound `Brc1ncn2c1Cn1ncnc1-c1ccccc1-2` 0.6

Please list Ki recorded for the compound `C=C=Cc1ccc2c(c1)-c1ncnn1Cc1c(Cl)ncn1-2` 30.7

Please list Ki recorded for the compound `Fc1ccc2c(c1)-c1ncnn1Cc1c(Cl)ncn1-2` 0.78

Please list Ki recorded for the compound `Cc1ccc2c(c1)-c1ncnn1Cc1c(Cl)ncn1-2` 21.4

Please list Ki recorded for the compound `Fc1ccc2c(c1)-c1ncnn1Cc1c(Br)ncn1-2` 3.9

Please list Ki recorded for the compound `Clc1ccc2c(c1)-c1ncnn1Cc1c(I)ncn1-2` 11.3

Please list Ki recorded for the compound `COc1ccc2c(c1)-c1ncnn1Cc1c(Cl)ncn1-2` 11.7

Please list Ki recorded for the compound `FC(F)c1ccc2c(c1)-c1ncnn1Cc1c(Cl)ncn1-2` 16

Please list Ki recorded for the compound `Clc1ncn2c1Cn1ncnc1-c1ccccc1-2` 0.7

Please list Ki recorded for the compound `C=COc1ccc2c(c1)-c1ncnn1Cc1c(Cl)ncn1-2` 11.4

Please list Ki recorded for the compound `Clc1ncn2c1Cn1ncnc1-c1cc(NC3CC3)ccc1-2` 78.8

Please list Ki recorded for the compound `Clc1ncn2c1Cn1ncnc1-c1cc(-c3cccnc3)ccc1-2` 21.7

Please list Ki recorded for the compound `FCCOc1ccc2c(c1)-c1ncnn1Cc1c(Cl)ncn1-2` 20.7

Please list Ki recorded for the compound `CNc1ccc2c(c1)-c1ncnn1Cc1c(Cl)ncn1-2` 8

Please list Ki recorded for the compound `FC(F)COc1ccc2c(c1)-c1ncnn1Cc1c(Cl)ncn1-2` 24.4

---

The following compounds are shown together with reported Ki values.
Target: GABA A receptor α2β3γ2 (hα2) (Homo sapiens, UniProt P18507+P47869)
Construct: expressed in transfected cells; host or cells: HEK293, transiently transfected; membranes
Experiment: [3H]flumazenil competition binding, human GABA A α2β3γ2
Description: The affinity of compounds at GABA A receptor subtypes was measured by competition for [^3H]flumazenil (85 Ci/mmol; Roche) binding to HEK293 cells expressing rat (stably transfected) or human (transiently transfected) receptors of composition α1β3γ2, α2β3γ2, α3β3γ2 and α5β3γ2. […]
Express it in nM; write the number only.

Past entries and their recorded results:
Provide measured Ki on GABA A receptor α2β3γ2 (hα2) (Homo sapiens, UniProt P18507+P47869) for `CNc1ccc2c(c1)-c1ncnn1Cc1c(Cl)ncn1-2` please. 15.7

Provide measured Ki on GABA A receptor α2β3γ2 (hα2) (Homo sapiens, UniProt P18507+P47869) for `COc1ccc2c(c1)-c1ncnn1Cc1c(Cl)ncn1-2` please. 17.2

Provide measured Ki on GABA A receptor α2β3γ2 (hα2) (Homo sapiens, UniProt P18507+P47869) for `FC(F)COc1ccc2c(c1)-c1ncnn1Cc1c(Cl)ncn1-2` please. 29.4

Provide measured Ki on GABA A receptor α2β3γ2 (hα2) (Homo sapiens, UniProt P18507+P47869) for `Clc1ncn2c1Cn1ncnc1-c1cc(-c3cccnc3)ccc1-2` please. 33.9

Further cases:
Provide measured Ki on GABA A receptor α2β3γ2 (hα2) (Homo sapiens, UniProt P18507+P47869) for `Fc1ccc2c(c1)-c1ncnn1Cc1c(Cl)ncn1-2` please. 1.2

---

target: GABA A receptor α5β3γ2 (hα5) (Homo sapiens, UniProt P18507+P31644); construct: expressed in transfected cells; host or cells: HEK293, transiently transfected; membranes; assay: [3H]flumazenil competition binding, human GABA A α5β3γ2; settings: HEK293 cells transiently transfected, 0.5 nM [3H]flumazenil, mean of two determinations; read-out: Ki[nM] hα5
The following compounds are shown together with reported Ki values.
Express it in nM; write the number only.

Past entries and their recorded results:
Please list Ki recorded for the compound Clc1ncn2c1Cn1ncnc1-c1ccccc1-2 [Example 1] 0.3

Please list Ki recorded for the compound Cc1ccc2c(c1)-c1ncnn1Cc1c(Cl)ncn1-2 [Example 22] 1.8

Please list Ki recorded for the compound Clc1ncn2c1Cn1ncnc1-c1cc(Br)ccc1-2 [Example 21] 1.4

Please list Ki recorded for the compound Clc1ccc2c(c1)-c1ncnn1Cc1c(I)ncn1-2 [Example 48] 1.4

Please list Ki recorded for the compound Clc1ncn2c1Cn1ncnc1-c1cc(C3CC3)ccc1-2 [Example 30] 1.2

Further cases:
Please list Ki recorded for the compound C=COc1ccc2c(c1)-c1ncnn1Cc1c(Cl)ncn1-2 [Example 10] 1.2

Please list Ki recorded for the compound C=Cc1ccc2c(c1)-c1ncnn1Cc1c(Cl)ncn1-2 [Example 66] 1.4

Please list Ki recorded for the compound CCCc1ccc2c(c1)-c1ncnn1Cc1c(Cl)ncn1-2 [Example 64] 7

Please list Ki recorded for the compound FCCOc1ccc2c(c1)-c1ncnn1Cc1c(Cl)ncn1-2 [Example 7] 1.3

Please list Ki recorded for the compound CNc1ccc2c(c1)-c1ncnn1Cc1c(Cl)ncn1-2 [Example 12] 1.8
